This listing pairs molecules with measured Emax.
Subject Of Test: UniProt:P30556
Sequence (P30556 1-359): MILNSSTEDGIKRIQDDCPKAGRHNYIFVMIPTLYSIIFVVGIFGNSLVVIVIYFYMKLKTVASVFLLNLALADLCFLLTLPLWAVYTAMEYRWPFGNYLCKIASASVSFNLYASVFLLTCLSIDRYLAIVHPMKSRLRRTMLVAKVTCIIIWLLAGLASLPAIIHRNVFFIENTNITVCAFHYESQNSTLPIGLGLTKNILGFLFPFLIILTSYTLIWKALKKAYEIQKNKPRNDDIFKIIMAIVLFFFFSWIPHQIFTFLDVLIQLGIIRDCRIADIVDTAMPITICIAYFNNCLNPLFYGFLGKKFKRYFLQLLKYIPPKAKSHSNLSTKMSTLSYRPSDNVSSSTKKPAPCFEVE
Test Summary: FLIPR calcium flux assay, Part II: antagonist activity against Angiotensin II; for hAT1R Antagonist Efficacy Antag (%) Ave: Angiotensin II 10 nM final concentration
Format: cell-based
Test Parameters: read-out: hAT1R Antagonist Efficacy Antag (%) Ave
Method: AT1 receptor (AT1R) agonists increase intracellular flux of calcium ions. AT1R antagonists can reduce the agonist effect. […] Intracellular flux of calcium in response to agonist was measured through real-time measurement of fluorescence induced through the interaction of Ca2+ (released from intracellular stores) and calcium-sensitive dye. In Part I, cells were exposed to varying concentrations of test compounds and immediately measured for agonist activity (EC50 and Efficacy). […]
Starred links: 1 amine or outer side, 2 acyl side, 3 side chain; linkers in the order of their positions; H or OH if unused. Non-standard residues stand in square brackets, D forms with d. Residues, ends and D or L forms follow the SMILES beside them. X1 = O=C(CN(C[C@H](O)[C@@H](O)[C@H](O)[C@H](O)CO)[*:1])[*:2]; dPhe(2-Cl) = N[C@H](Cc1ccccc1Cl)C(=O)O; d1Nal = N[C@H](Cc1cccc2ccccc12)C(=O)O; Gly(cPent) = N[C@H](C(=O)O)C1CCCC1; Chg = N[C@H](C(=O)O)C1CCCCC1
Return type: number; implicit unit %.

Examples with answers:
[[record]]
molecule = "CNCC(=O)N[C@@H](CCCNC(=N)N)C(=O)N[C@H](C(=O)N[C@@H](Cc1ccc(O)cc1)C(=O)N[C@H](C(=O)N[C@@H](Cc1c[nH]cn1)C(=O)N1CCC[C@H]1C(=O)N[C@H](Cc1ccccc1Cl)C(=O)O)C(C)C)C(C)C [Compound 4] (HELM PEPTIDE1{[Sar].R.V.Y.V.H.P.[O=C(O)[C@@H](Cc1ccccc1Cl)N[*:1]]}$$$$V2.0)"
value_measured = 99

[[record]]
molecule = "CC[C@H](C)[C@H](NC(=O)[C@@H]1CCCN1C(=O)[C@H](Cc1c[nH]cn1)NC(=O)[C@@H](NC(=O)[C@H](Cc1ccc(O)cc1)NC(=O)[C@@H](NC(=O)[C@H](CCCNC(=N)N)NC(=O)CNC)C(C)C)[C@@H](C)CC)C(=O)O [Ref. Cpd. 1, Sar-Arg-Val-Tyr-Ile-His-Pro-Ile-OH, reference compound]"
value_measured = 99

[[record]]
molecule = "CNCC(=O)N[C@@H](CCCNC(=N)N)C(=O)N[C@H](C(=O)N[C@@H](Cc1ccc(O)cc1)C(=O)N[C@H](C(=O)N[C@@H](Cc1c[nH]cn1)C(=O)N1CCC[C@H]1C(=O)N[C@H](Cc1ccccc1C(F)(F)F)C(=O)O)C1CCCCC1)C(C)C [Compound 26] (HELM PEPTIDE1{[Sar].R.V.Y.[O=C([C@@H](N[*:1])C1CCCCC1)[*:2]].H.P.[O=C(O)[C@@H](Cc1ccccc1C(F)(F)F)N[*:1]]}$$$$V2.0)"
value_measured = 99

[[record]]
molecule = "CC(C)[C@H](NC(=O)[C@H](CCCNC(=N)N)NC(=O)CNC[C@H](O)[C@@H](O)[C@H](O)[C@H](O)CO)C(=O)N[C@@H](Cc1ccc(O)cc1)C(=O)N[C@H](C(=O)N[C@@H](Cc1c[nH]cn1)C(=O)N1CCC[C@H]1C(=O)N[C@H](Cc1ccccc1Cl)C(=O)O)C1CCCCC1 [Compound 31] (H-[X1]RVY[Chg]HP[dPhe(2-Cl)]-OH)"
value_measured = 99

[[record]]
molecule = "CC(C)[C@H](NC(=O)[C@H](CCCNC(=N)N)NC(=O)CNC[C@H](O)[C@@H](O)[C@H](O)[C@H](O)CO)C(=O)N[C@@H](Cc1ccc(O)cc1)C(=O)N[C@H](C(=O)N[C@@H](Cc1c[nH]cn1)C(=O)N1CCC[C@H]1C(=O)N[C@H](Cc1cccc2ccccc12)C(=O)O)C1CCCCC1 [Compound 40, Glac-Arg-Val-Tyr-Chg-His-Pro-(D-1Nal)-OH] (H-[X1]RVY[Chg]HP[d1Nal]-OH)"
value_measured = 101


**Q:** Please give measured Emax of the following entry: CNCC(=O)N[C@@H](CCCNC(=N)N)C(=O)N[C@H](C(=O)N[C@@H](Cc1ccc(O)cc1)C(=O)N[C@@H](Cc1cscn1)C(=O)N[C@@H](Cc1c[nH]cn1)C(=O)N1CCC[C@H]1C(=O)N[C@H](Cc1ccccc1Cl)C(=O)O)C(C)C [Compound 24] (HELM PEPTIDE1{[Sar].R.V.Y.[O=C([C@H](Cc1cscn1)N[*:1])[*:2]].H.P.[O=C(O)[C@@H](Cc1ccccc1Cl)N[*:1]]}$$$$V2.0)
**A:** 99

**Q:** Provide measured Emax value, entry: CNCC(=O)N[C@@H](CCCNC(=N)N)C(=O)N[C@H](C(=O)N[C@@H](Cc1ccc(O)cc1)C(=O)N[C@H](C(=O)N[C@@H](Cc1c[nH]cn1)C(=O)N1CCC[C@H]1C(=O)N[C@H](Cc1ccccc1Cl)C(=O)O)C1CCCC1)C(C)C [Compound 18] (HELM PEPTIDE1{[Sar].R.V.Y.[O=C([C@@H](N[*:1])C1CCCC1)[*:2]].H.P.[O=C(O)[C@@H](Cc1ccccc1Cl)N[*:1]]}$$$$V2.0)
**A:** 99

**Q:** Let me know recorded Emax for CNCC(=O)N[C@@H](CCCNC(=N)N)C(=O)N[C@H](C(=O)N[C@@H](Cc1ccc(O)cc1)C(=O)N[C@H](C(=O)N[C@@H](Cc1c[nH]cn1)C(=O)N1CCC[C@H]1C(=O)N[C@H](Cc1cccc2ccccc12)C(=O)O)[C@@H](C)OC)C(C)C , thanks.
**A:** 100

**Q:** Return the recorded Emax value; entry: CNCC(=O)N[C@@H](CCCNC(=N)N)C(=O)N[C@H](C(=O)N[C@@H](Cc1ccc(O)cc1)C(=O)N[C@H](C(=O)N[C@@H](Cc1c[nH]cn1)C(=O)N1CCC[C@H]1C(=O)N[C@H](Cc1cccc2ccccc12)C(=O)O)C1CCCC1)C(C)C [Compound 15, Sar-Arg-Val-Tyr-Cpg-His-Pro-(D-1Nal)-OH] (HELM PEPTIDE1{[Sar].R.V.Y.[O=C([C@@H](N[*:1])C1CCCC1)[*:2]].H.P.[O=C(O)[C@@H](Cc1cccc2ccccc12)N[*:1]]}$$$$V2.0)
**A:** 100

**Q:** Answer with reported Emax of CNCC(=O)N[C@@H](CCCNC(=N)N)C(=O)N[C@H](C(=O)N[C@@H](Cc1ccc(O)cc1)C(=O)N[C@@H](Cc1ccc(O)cc1)C(=O)N[C@@H](Cc1c[nH]cn1)C(=O)N1CCC[C@H]1C(=O)N[C@H](Cc1cccc2ccccc12)C(=O)O)C(C)C
**A:** 100

**Q:** Using known records, supply Emax for CC(C)[C@H](NC(=O)[C@H](CCCNC(=N)N)NC(=O)CNC[C@H](O)[C@@H](O)[C@H](O)[C@H](O)CO)C(=O)N[C@@H](Cc1ccc(O)cc1)C(=O)N[C@H](C(=O)N[C@@H](Cc1c[nH]cn1)C(=O)N1CCC[C@H]1C(=O)N[C@H](Cc1ccccc1Cl)C(=O)O)C1CCCC1 [Compound 43] (H-[X1]RVY[Gly(cPent)]HP[dPhe(2-Cl)]-OH)
**A:** 100

====

Subject Of Test: hAT1R (Homo sapiens, UniProt P30556)
Sequence (P30556 1-359): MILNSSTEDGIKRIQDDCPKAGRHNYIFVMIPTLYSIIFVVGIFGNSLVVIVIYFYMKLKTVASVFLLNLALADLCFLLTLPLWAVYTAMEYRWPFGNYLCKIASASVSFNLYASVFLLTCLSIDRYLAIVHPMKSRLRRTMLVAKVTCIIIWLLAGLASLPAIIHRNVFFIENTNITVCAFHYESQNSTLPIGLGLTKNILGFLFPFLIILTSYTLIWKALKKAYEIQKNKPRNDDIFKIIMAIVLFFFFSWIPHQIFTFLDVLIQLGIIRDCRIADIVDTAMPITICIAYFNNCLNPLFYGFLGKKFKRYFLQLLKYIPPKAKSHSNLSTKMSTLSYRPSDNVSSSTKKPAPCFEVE
Test Summary: FLIPR calcium flux assay, Part I: agonist activity
Format: cell-based
Test Parameters: ChanTest hAT1R stable cells; % MPE, percent of the maximal possible effect; read-out: hAT1R Agonist Efficacy Agonist (%) Ave
Residues, ends and D or L forms follow the SMILES beside them.
Measured Property: Emax (%)
State the answer as a number, implicitly in %.

**Q:** Supply recorded Emax for CNCC(=O)N[C@@H](CCCNC(=N)N)C(=O)N[C@H](C(=O)N[C@@H](Cc1ccc(O)cc1)C(=O)N[C@H](C(=O)N[C@@H](Cc1c[nH]cn1)C(=O)N1CCC[C@H]1C(=O)N[C@H](Cc1ccccc1Cl)C(=O)O)C1CCCC1)C(C)C [Compound 18] (HELM PEPTIDE1{[Sar].R.V.Y.[O=C([C@@H](N[*:1])C1CCCC1)[*:2]].H.P.[O=C(O)[C@@H](Cc1ccccc1Cl)N[*:1]]}$$$$V2.0) here.
**A:** 3
